// data source = PubChem BioAssay AID1963861

Record form. Attribute: IC50. Fill in for each entry.
- System: 885724-159-R-J1-PDC KRAS PDC multicell spheroid viability;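 also: spheroids exposed to agents for 7 days before readout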
- Experiment Summary: Anticancer human tumor 885724-159-R-J1-PDC patient-derived pancreatic adenocarcinoma cell line growth inhibition [KRAS2]
- Setup Conditions: curve of first compound; second compound 10 µM

Note IC50 for the compound shown: CC(=O)Nc1cccc(-n2c(=O)n(C3CC3)c(=O)c3c(Nc4ccc(I)cc4F)n(C)c(=O)c(C)c32)c1 + COc1cc2nc(C)nc(NC(C)c3cc(N)cc(C(F)(F)F)c3)c2cc1OC1CCOC1
< 0.1 nM

Specify measured IC50 for CC1(C)CCC(CN2CCN(c3ccc(C(=O)NS(=O)(=O)c4ccc(NCC5CCOCC5)c([N+](=O)[O-])c4)c(Oc4cnc5[nH]ccc5c4)c3)CC2)=C(c2ccc(Cl)cc2)C1 + C=CC(=O)N1CCN(c2nc(=O)n(-c3c(C)ccnc3C(C)C)c3nc(-c4c(O)cccc4F)c(F)cc23)C(C)C1 .
5480 nM

# return recorded IC50 for input COC(=O)c1ccc2c(C(=Nc3ccc(N(C)C(=O)CN4CCN(C)CC4)cc3)c3ccccc3)c(O)[nH]c2c1 + CC1OCC2(CCN(c3cnc(Sc4ccnc(N)c4Cl)c(N)n3)CC2)C1N
1090 nM

Give IC50 for O=C(c1cc(Cc2n[nH]c(=O)c3ccccc23)ccc1F)N1CCN(C(=O)C2CC2)CC1 + CNCc1ccccc1-c1csc(C(C)Nc2nc(C)nc3cc(OC)c(OC)cc23)c1
< 31.6 nM

Identify measured IC50 corresponding to CC(C)NCC(C(=O)N1CCN(c2ncnc3c2C(C)CC3O)CC1)c1ccc(Cl)cc1 (stereo not given) + CNCc1ccccc1-c1csc(C(C)Nc2nc(C)nc3cc(OC)c(OC)cc23)c1
< 31.6 nM

Provide measured IC50 value, entry: CCN1CCN(Cc2ccc(Nc3ncc(F)c(-c4cc(F)c5nc(C)n(C(C)C)c5c4)n3)nc2)CC1 + CNCc1ccccc1-c1csc(C(C)Nc2nc(C)nc3cc(OC)c(OC)cc23)c1
< 3.16 nM

Return IC50 (reported value) for this compound: CC1(C)CCC(CN2CCN(c3ccc(C(=O)NS(=O)(=O)c4ccc(NCC5CCOCC5)c([N+](=O)[O-])c4)c(Oc4cnc5[nH]ccc5c4)c3)CC2)=C(c2ccc(Cl)cc2)C1 + CNCc1ccccc1-c1csc(C(C)Nc2nc(C)nc3cc(OC)c(OC)cc23)c1
< 31.6 nM

Look up and report measured IC50 for this entry: COc1cc(Nc2ncc3c(n2)-c2ccc(Cl)cc2C(c2c(F)cccc2OC)=NC3)ccc1C(=O)O + CC1OCC2(CCN(c3cnc(Sc4ccnc(N)c4Cl)c(N)n3)CC2)C1N
> 10000 nM

Query IC50 for CN(C)C/C=C/C(=O)Nc1cc2c(Nc3ccc(F)c(Cl)c3)ncnc2cc1O[C@H]1CCOC1 + CC1OCC2(CCN(c3cnc(Sc4ccnc(N)c4Cl)c(N)n3)CC2)C1N
> 100 nM

Give the reported IC50 for this compound. COc1cc2nccc(Oc3ccc(NC(=O)C4(C(=O)Nc5ccc(F)cc5)CC4)cc3)c2cc1OC + CNCc1ccccc1-c1csc(C(C)Nc2nc(C)nc3cc(OC)c(OC)cc23)c1
< 31.6 nM
